testedOn: AgrA (C-terminal DNA-binding domain, AgrA_C) (Staphylococcus aureus, UniProt P0A0I7, C199S)
protocolDescription: microscale thermophoresis (Alexa Fluor 647-labeled protein)
// values below are reported Kd
Lab book: enter the figure in µM, no units written.

compound	endpointUnit	measValue
CCCCCCc1cc(C(=O)COc2ccc(F)cc2F)c(O)cc1O	µM	4.5

Consider now this further compound.
Sure, the documented Kd for CCCCCCc1cc(C(=O)COc2ccc(C(C)C)cc2)c(O)cc1O is 2.9
